# Tested on: Zika virus
# assayName: Inhibition of NS5 in Zika virus at 50 ug/ml after 10 mins in presence of nucleotide mix by fluorescence assay
# experimentalConditions: dose 50.0 µg/ml
readoutKind: inhibition (%)

CC(=O)OC/C=C(\C)[C@@H]1C(C)=C[C@@H]2C[C@H](O)C[C@H](C)[C@H]2[C@@H]1/C=C/C=C/C(=O)O	32
C/C=C(\C)[C@@H]1C(C)=C[C@@H]2C[C@@H](OC(C)=O)C[C@H](C)[C@H]2[C@@H]1/C=C/C=C/C(=O)O	47.7
C/C=C(\C)[C@@H]1C(C)=C[C@@H]2C[C@H](O)C[C@H](C)[C@H]2[C@@H]1/C=C/C=C/C(=O)O	50.9
C/C=C(\C)[C@@H]1C(C)=C[C@@H]2C[C@@H](O)C[C@H](C)[C@H]2[C@@H]1/C=C/C=C/C(=O)O	40.9
